- System: Interferon-α
- test details: Induction of Interferon-α using cryopreserved human PBMCs
- Assay type: cell-based
- measurement setup: PBMC, 24 h incubation, normalised to 1 uM resiquimod, read-out: mean pEC50 for induction of IFN-α (converted)
Readings of EC50 for the listed compounds

{"columns": ["compound", "study target", "EC50"],
 "data": [
  ["CCCCOc1nc(N)c2[nH]c(=O)n(CCCC3CCCCN3CC)c2n1 (centres unmarked)", "Interferon-α", "< 1580 nM"],
  ["CCCCOc1nc(N)c2[nH]c(=O)n(CC3CCN(CC(C)C)CC3)c2n1", "Interferon-α", "< 1580 nM"],
  ["CCCCOc1nc(N)c2[nH]c(=O)n(CCCC3CCCN(C4CCCC4)C3)c2n1 (centres unmarked)", "Interferon-α", "< 1580 nM"],
  ["CCCCOc1nc(N)c2[nH]c(=O)n(CC3CCCN(C(C)C)C3)c2n1 (centres unmarked)", "Interferon-α", "< 1580 nM"],
  ["CCCCOc1nc(N)c2[nH]c(=O)n(CCC3CCCNC3)c2n1 (centres unmarked)", "Interferon-α", "< 1580 nM"]
]}

----------
- System: TNF-α
- test details: Induction of TNF-α using fresh human PBMCs
- Type: cell-based
- measurement setup: PBMC, 24 hr incubation, relative to 2 μM resiquimod control, read-out: mean pEC50 for induction of TNF-α (converted)

{"columns": ["molecule", "study target", "EC50"],
 "data": [
  ["CCC[C@H](C)Oc1nc(N)c2[nH]c(=O)n(CCCC3CCN(C(C)C)CC3)c2n1", "TNF-α", "> 31.6 nM"],
  ["CCCCOc1nc(N)c2[nH]c(=O)n(CC3CCN(CC)CC3)c2n1", "TNF-α", "> 1000 nM"],
  ["CCCCOc1nc(N)c2[nH]c(=O)n(CCCC3CCCCN3CC(C)C)c2n1 (stereo not drawn)", "TNF-α", "> 31.6 nM"],
  ["CCCCOc1nc(N)c2[nH]c(=O)n(CCCCC3CCN(CC)CC3)c2n1", "TNF-α", "> 1000 nM"],
  ["CCCCOc1nc(N)c2[nH]c(=O)n(CCCC3CCN(CCC)CC3)c2n1", "TNF-α", "> 1000 nM"],
  ["CCC[C@H](C)Oc1nc(N)c2[nH]c(=O)n(CCCCC3CCCN(CC)C3)c2n1 (stereo partly drawn)", "TNF-α", "> 31.6 nM"]
]}

----------
- Tested on: TNF-α
- test details: Induction of TNF-α using fresh human PBMCs
- Assay type: cell-based
- measurement setup: PBMC, 24 hr incubation, relative to 2 μM resiquimod control, read-out: mean pEC50 for induction of TNF-α (converted)
reported endpoint: EC50

{"columns": ["molecule", "reported endpoint", "measured value"],
 "data": [
  ["CCC[C@H](C)Oc1nc(N)c2[nH]c(=O)n(CCC3CCCN(CC)C3)c2n1 (stereo partly drawn)", "EC50", "> 31.6 nM"],
  ["CCCCOc1nc(N)c2[nH]c(=O)n(CCCCCC3CCNCC3)c2n1", "EC50", "> 31.6 nM"],
  ["CCCCOc1nc(N)c2[nH]c(=O)n(CCC3CCN(C(C)C)CC3)c2n1", "EC50", "> 1000 nM"],
  ["CC(C)Oc1nc(N)c2[nH]c(=O)n(CCCCC3CCNCC3)c2n1", "EC50", "> 1000 nM"],
  ["CCCCOc1nc(N)c2[nH]c(=O)n(CCCC3CCN(CCCC)CC3)c2n1", "EC50", "> 1000 nM"],
  ["CCC[C@H](C)Oc1nc(N)c2[nH]c(=O)n(CCC3CCCN(C(C)C)C3)c2n1 (stereo partly drawn)", "EC50", "> 31.6 nM"],
  ["CCCCOc1nc(N)c2[nH]c(=O)n(CCCC3CCN(C(C)C)CC3)c2n1", "EC50", "> 1000 nM"],
  ["CCC[C@H](C)Oc1nc(N)c2[nH]c(=O)n(CCC3CCN(CC)CC3)c2n1", "EC50", "> 31.6 nM"],
  ["CCC[C@H](C)Oc1nc(N)c2[nH]c(=O)n(CCC3CCN(C(C)C)CC3)c2n1", "EC50", "> 1000 nM"],
  ["CCCCOc1nc(N)c2[nH]c(=O)n(CCC3CCN(CC)CC3)c2n1", "EC50", "> 1000 nM"],
  ["CCCCOc1nc(N)c2[nH]c(=O)n(CC3CCCN(CCC)C3)c2n1 (stereo not drawn)", "EC50", "> 1000 nM"],
  ["CCCCOc1nc(N)c2[nH]c(=O)n(CCC3CCCN(CC)C3)c2n1 (stereo not drawn)", "EC50", "> 1000 nM"],
  ["CCCCOc1nc(N)c2[nH]c(=O)n(CC3CCCN(CC)C3)c2n1 (stereo not drawn)", "EC50", "> 1000 nM"],
  ["CCCCOc1nc(N)c2[nH]c(=O)n(CC3CCCN(C(C)C)C3)c2n1 (stereo not drawn)", "EC50", "> 1000 nM"],
  ["CCCCOc1nc(N)c2[nH]c(=O)n(CCCC3CCN(C4CCCCC4)CC3)c2n1", "EC50", "> 1000 nM"],
  ["CCC[C@H](C)Oc1nc(N)c2[nH]c(=O)n(CCCC3CCNCC3)c2n1", "EC50", "> 31.6 nM"],
  ["CCCCOc1nc(N)c2[nH]c(=O)n(CCCCCC3CCCN(C(C)C)C3)c2n1 (stereo not drawn)", "EC50", "> 1000 nM"],
  ["CCCCOc1nc(N)c2[nH]c(=O)n(CCC3CCCN(C(C)C)C3)c2n1 (stereo not drawn)", "EC50", "> 1000 nM"]
]}
